readoutType: melting point

Example entries and their recorded answers appear below.
CSc1cc(C)nc(SC)c1NC(=O)CCN1CCN(CCCSc2nc3ncccc3o2)CC1.Cl.Cl :: 224 to 227 °C
CC(C)c1cc(O)cc(C(C)C)c1NC(=O)CN1CCN(CCSc2nc3ccccc3[nH]2)CC1 :: 241 to 242 °C
CC(C)c1cccc(C(C)C)c1NC(=O)CN1CCCN(CCCSc2nc3ncccc3o2)CC1 :: 73 to 75 °C
Cc1cc(SC(C)C)c(NC(=O)CN2CCN(CCSc3nc4ccccc4o3)CC2)c(SC(C)C)n1.Cl.Cl :: 159 to 164 °C
CC(C)c1ccc(N(C)C)c(C(C)C)c1NC(=O)CN1CCN(CCSc2nc3ccccc3o2)CC1 :: 159 to 161 °C

Entry CC(C)c1cccc(C(C)C)c1NC(=O)CN1CCCN(CCCSc2nc3ccccc3o2)CC1 ; melting point = 109 to 111 °C

response.value for COc1ccc(C(C)C)c(NC(=O)CN2CCN(CCSc3nc4ccccc4o3)CC2)c1C(C)C.Cl.Cl (field: melting point) = 218 to 222 °C

Item: Cc1cc(SC(C)C)c(NC(=O)CN2CCN(CCCSc3nc4ccccc4o3)CC2)c(SC(C)C)n1.Cl.Cl | melting point: 178 to 181 °C

// recorded melting point for CC(C)c1cccc(C(C)C)c1NC(=O)CN1CCN(CCSc2nc3ccccc3[nH]2)CC1 : 207 °C (dec.)

melting point reported for this molecule Cc1cc(SC(C)C)c(NC(=O)CN2CCN(CCSc3nc4cccc([N+](=O)[O-])c4o3)CC2)c(SC(C)C)n1 : 57 to 59 °C

Field melting point (entry COC(=O)c1cccc2nc(SCCN3CCN(CC(=O)Nc4c(C(C)C)cccc4C(C)C)CC3)oc12 ) reads 159 to 161 °C

Field melting point (entry CC(C)c1cccc(C(C)C)c1NC(=O)CN1CCCN(CCCSc2nc3cccc(C(F)(F)F)c3o2)CC1 ) reads 77 to 79 °C

Reported melting point for CSc1cc(C)nc(SC)c1NC(=O)CCN1CCN(CCSc2nc3ccccc3o2)CC1 was 110 to 112 °C

Record summary for CC(C)c1ccc(F)c(C(C)C)c1NC(=O)CN1CCN(CCSc2nc3ccccc3o2)CC1 : reported melting point = 142 to 144 °C

Item: COC(=O)c1cccc2nc(SCCN3CCN(CCNC(=O)Nc4c(C(C)C)cccc4C(C)C)CC3)oc12 | melting point: 186 to 188 °C

What the record says about CSc1ccc(C(C)C)c(NC(=O)CN2CCN(CCSc3nc4ccccc4o3)CC2)c1C(C)C : melting point is 148 to 150 °C

* * *

melting point overview

Use these answered entries as a reference point.
CSc1cc(C)nc(SC)c1NC(=O)CN1CCN(CCCSc2nc3ccccc3o2)CC1 :: 160 to 161 °C
COc1cc(C(C)C)c(NC(=O)CN2CCN(CCSc3nc4cccc(C(F)(F)F)c4o3)CC2)c(C(C)C)c1 :: 122 to 123 °C
CC(C)c1cccc(C(C)C)c1NC(=O)CN1CCN(CCSc2nc3cccc([S+](C)[O-])c3o2)CC1 (centres unmarked) :: 119 to 120 °C
CCCCCCCN(CCN1CCN(CCSc2nc3ccccc3o2)CC1)C(=O)Nc1c(C(C)C)cccc1C(C)C :: 110 to 111 °C
CCCCCCCN(CCN1CCN(CCCSc2nc3ccccc3o2)CC1)C(=O)Nc1c(SC)cc(C)nc1SC.Cl.Cl :: 208 to 210 °C
CC(=O)Oc1ccc(C(C)C)c(NC(=O)CN2CCN(CCSc3nc4ccccc4o3)CC2)c1C(C)C :: 129 to 131 °C
CC(C)c1cccc(C(C)C)c1NC(=O)NCCN1CCN(CCSc2nc3ccccc3s2)CC1 :: 147 to 149 °C

From here, focus on the item given below.
CC(C)c1cc(OC(=O)[C@H](C)N)cc(C(C)C)c1NC(=O)CN1CCN(CCSc2nc3cccc(C(F)(F)F)c3o2)CC1.O=C(O)C(F)(F)F.O=C(O)C(F)(F)F.O=C(O)C(F)(F)F has a reported melting point of 124 to 126 °C
